// provenance: ChEMBL document CHEMBL5370537

Items are presented alongside their recorded pIC50.
- study target: D(1A) dopamine receptor (Homo sapiens)
- Sequence (P21728 whole entry): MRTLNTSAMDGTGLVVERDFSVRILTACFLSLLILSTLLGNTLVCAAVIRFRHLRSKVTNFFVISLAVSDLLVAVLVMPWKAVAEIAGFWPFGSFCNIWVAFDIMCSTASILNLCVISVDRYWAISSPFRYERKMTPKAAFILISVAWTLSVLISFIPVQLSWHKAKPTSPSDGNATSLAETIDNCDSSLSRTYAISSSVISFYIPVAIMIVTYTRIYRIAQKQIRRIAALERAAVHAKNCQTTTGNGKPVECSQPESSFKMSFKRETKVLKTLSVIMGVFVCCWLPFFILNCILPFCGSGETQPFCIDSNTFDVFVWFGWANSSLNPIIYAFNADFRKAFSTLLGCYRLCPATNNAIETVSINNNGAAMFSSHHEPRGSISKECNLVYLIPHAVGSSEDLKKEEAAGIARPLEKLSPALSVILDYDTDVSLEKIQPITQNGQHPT
- assay overview: Antagonist activity at D1R (unknown origin) transfected in HEK293 cells by FLIPR assay
pIC50: −log10 of the molar value.

- molecule: "COc1c(O)cc2c3c1-c1ccccc1CC3NCC2 (stereo not drawn)"
  study target: "D(1A) dopamine receptor (Homo sapiens)"
  pIC50: 5.14
- molecule: "COc1cc2c3c(c1OC)-c1ccccc1CC3NCC2 (stereo not drawn)"
  study target: "D(1A) dopamine receptor (Homo sapiens)"
  pIC50: 4.41
- molecule: "COc1c(O)cc2c3c1-c1ccccc1C[C@H]3NCC2 [(-)-ASIMILOBINE]"
  study target: "D(1A) dopamine receptor (Homo sapiens)"
  pIC50: 5.14
